Data credit: ChEMBL document CHEMBL2321769

ASSAYED_SYSTEM: Phosphatidylinositol 4,5-bisphosphate 3-kinase catalytic subunit gamma isoform (Homo sapiens, UniProt P48736)
Sequence (P48736 whole entry, canonical isoform): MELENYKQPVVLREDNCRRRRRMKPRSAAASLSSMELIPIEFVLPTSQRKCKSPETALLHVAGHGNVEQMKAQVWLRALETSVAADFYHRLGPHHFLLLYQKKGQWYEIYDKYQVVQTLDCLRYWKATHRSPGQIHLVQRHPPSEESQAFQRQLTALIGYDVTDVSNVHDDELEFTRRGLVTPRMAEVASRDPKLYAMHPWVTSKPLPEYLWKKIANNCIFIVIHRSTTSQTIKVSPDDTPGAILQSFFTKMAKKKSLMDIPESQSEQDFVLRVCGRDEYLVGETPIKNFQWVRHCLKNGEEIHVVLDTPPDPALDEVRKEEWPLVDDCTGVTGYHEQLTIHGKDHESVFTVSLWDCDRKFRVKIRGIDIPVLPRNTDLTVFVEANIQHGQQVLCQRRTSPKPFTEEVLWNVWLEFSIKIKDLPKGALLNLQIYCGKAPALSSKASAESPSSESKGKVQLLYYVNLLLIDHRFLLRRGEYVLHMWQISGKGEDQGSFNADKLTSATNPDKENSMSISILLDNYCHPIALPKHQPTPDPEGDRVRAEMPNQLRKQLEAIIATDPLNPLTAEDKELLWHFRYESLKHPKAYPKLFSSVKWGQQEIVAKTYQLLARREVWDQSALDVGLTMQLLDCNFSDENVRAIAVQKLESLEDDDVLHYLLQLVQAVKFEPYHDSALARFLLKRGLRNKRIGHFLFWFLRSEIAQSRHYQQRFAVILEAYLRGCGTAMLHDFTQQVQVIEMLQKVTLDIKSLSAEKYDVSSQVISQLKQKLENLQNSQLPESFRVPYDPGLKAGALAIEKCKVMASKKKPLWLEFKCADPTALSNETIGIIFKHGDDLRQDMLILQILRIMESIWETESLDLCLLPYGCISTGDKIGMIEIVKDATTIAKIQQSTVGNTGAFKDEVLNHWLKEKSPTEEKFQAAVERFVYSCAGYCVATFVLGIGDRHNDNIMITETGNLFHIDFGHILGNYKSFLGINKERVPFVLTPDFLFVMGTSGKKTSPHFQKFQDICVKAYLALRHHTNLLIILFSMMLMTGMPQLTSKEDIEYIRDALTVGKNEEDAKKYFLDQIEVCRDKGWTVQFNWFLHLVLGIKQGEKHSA
PROTOCOL_NOTES: Inhibition of PI3Kgamma (unknown origin) expressed in SF21 cells using phosphatidylinositol as substrate after 60 mins by Kinase-Glo assay
ATTRIBUTE_MEASURED: IC50

COc1ccc2c(c1)nc(C(F)F)n2-c1nc(N2CCOCC2)nc(N2CCOCC2)n1 = > 10 µM
COc1ccc2c(c1)nc(C(C)C)n2-c1nc(N2CCOCC2)nc(N2CCOCC2)n1 = > 10 µM
CC(C)c1nc2ccccc2n1-c1nc(N2CCOCC2)nc(N2CCOCC2)n1 = 2.53 µM
COc1ccc2nc(C)n(-c3nc(N4CCOCC4)nc(N4CCOCC4)n3)c2c1 = > 10 µM
COc1ccc2nc(C(F)F)n(-c3nc(N4CCOCC4)nc(N4CCOCC4)n3)c2c1 = > 10 µM
Cc1nc2ccccc2n1-c1nc(N2CCOCC2)nc(N2CCOCC2)n1 = 1.86 µM

Consider now this further molecule.
Qu. Form field: reported IC50 of COc1ccc2c(c1)nc(C)n2-c1nc(N2CCOCC2)nc(N2CCOCC2)n1
Ans. > 10 µM
